Across several publications, the following pIC50 results were reported for Calpain II (Homo sapiens).
Conceptually, pIC50 converts a concentration in mol/L into minus its log10.

Check out these entries, answers already filled in.
1. N=C(N)SCCCOc1oc(=O)c2cc(NC(=O)NCc3ccccc3)ccc2c1Cl 4.52
2. CC(=O)Nc1ccc2c(Cl)c(OCCCSC(=N)N)oc(=O)c2c1 4.10

State its pIC50: `N=C(N)SCCCOc1oc(=O)c2ccccc2c1Cl`
4.15

State its pIC50: `CC(C)C[C@@H](CO)NC(=O)[C@@H](NC(=O)c1ccc(C=O)o1)C(C)C`
3.92

State its pIC50: `Cn1c(=O)c(=NNC(=O)CCl)[nH]c2ccccc21`
4.96

State its pIC50: `O=C(CCl)NN=c1[nH]c2ccccc2n(-c2ccc(Cl)cc2)c1=O`
6.80

State its pIC50: `CC[C@@H](NC(=O)[C@H](CC(C)C)NC(=O)OCc1ccccc1)C(=O)C(=O)NCc1cc(OC)cc(OC)c1`
4.71

State its pIC50: `CC(C)C[C@@H](C=O)NC(=O)[C@@H](NC(=O)c1ccc(C=O)[nH]1)C(C)C`
7.52

State its pIC50: `CC[C@H](NC(=O)[C@H](CC(C)C)NC(=O)OCc1ccccc1)C(=O)C(=O)NCc1cc(OC)cc(OC)c1`
6.71
